study.system: Glycine receptor subunit alpha-3 (Mus musculus)
Sequence (Q91XP5 whole entry): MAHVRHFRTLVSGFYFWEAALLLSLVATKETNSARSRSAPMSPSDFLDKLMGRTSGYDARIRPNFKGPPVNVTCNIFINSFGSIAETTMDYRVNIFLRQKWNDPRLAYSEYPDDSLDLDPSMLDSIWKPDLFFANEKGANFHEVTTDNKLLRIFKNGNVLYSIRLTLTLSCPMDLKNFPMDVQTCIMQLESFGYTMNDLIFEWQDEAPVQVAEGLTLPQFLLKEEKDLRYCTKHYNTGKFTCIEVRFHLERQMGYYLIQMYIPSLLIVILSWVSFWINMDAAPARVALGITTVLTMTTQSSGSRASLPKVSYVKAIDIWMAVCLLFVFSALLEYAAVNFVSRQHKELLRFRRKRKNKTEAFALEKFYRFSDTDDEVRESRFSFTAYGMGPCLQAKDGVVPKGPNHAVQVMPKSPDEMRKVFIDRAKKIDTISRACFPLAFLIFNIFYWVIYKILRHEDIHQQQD
measurement.description: Positive allosteric modulation of mouse GlyRalpha3 expressed in HEK293 cells assessed as potentiation of glycine-induced calcium flux by calcium dye-5 based FLIPR assay
experimental.readout: EC50 (nM)
Give bare numbers, in nM.

Identify the reported EC50 for the following entry. CN1C(=O)[C@@H]2CN(S(=O)(=O)c3ccc4occc4c3)C[C@@H]2c2cnccc21
490

---

study.system: Sodium- and chloride-dependent glycine transporter 1 (Homo sapiens, UniProt P48067)
Sequence (P48067 whole entry): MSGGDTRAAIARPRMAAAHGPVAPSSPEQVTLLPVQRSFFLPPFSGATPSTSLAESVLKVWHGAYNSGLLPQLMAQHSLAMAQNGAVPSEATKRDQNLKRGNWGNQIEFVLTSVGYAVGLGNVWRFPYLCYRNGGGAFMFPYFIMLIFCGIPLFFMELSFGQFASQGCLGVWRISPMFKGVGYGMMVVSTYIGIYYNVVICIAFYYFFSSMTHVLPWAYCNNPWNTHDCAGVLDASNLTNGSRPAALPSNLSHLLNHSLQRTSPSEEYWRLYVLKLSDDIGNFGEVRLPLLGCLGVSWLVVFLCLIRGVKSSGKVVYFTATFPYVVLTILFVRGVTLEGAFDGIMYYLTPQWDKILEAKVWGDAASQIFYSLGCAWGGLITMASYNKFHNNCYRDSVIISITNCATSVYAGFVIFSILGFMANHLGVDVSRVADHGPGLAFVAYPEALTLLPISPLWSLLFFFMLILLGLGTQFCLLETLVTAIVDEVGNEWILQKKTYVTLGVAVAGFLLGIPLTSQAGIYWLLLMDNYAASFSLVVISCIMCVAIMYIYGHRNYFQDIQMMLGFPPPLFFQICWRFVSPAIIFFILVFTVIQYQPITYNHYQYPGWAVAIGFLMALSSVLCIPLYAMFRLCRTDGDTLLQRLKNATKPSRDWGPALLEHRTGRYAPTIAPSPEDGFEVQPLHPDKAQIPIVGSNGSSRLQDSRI
measurement.description: Inhibition of human GlyT-1 expressed in CHO cells assessed as reduction in [3H]-glycine uptake
Format: cell-based
experimental.readout: IC50

Specify IC50 for COc1cc(C(=O)NCC2(N(C)C)CCCC2)cc(OC)c1OCc1ccccc1 and stop.
> 100 µM
